# experimental target: PLK1 (Homo sapiens)
# assay text: In vitro PLK1 ELISA assay (biochemical)
# Parameters: purchased Cell Signalling 7728
# condition context: ELISA, CHK2-derived peptide substrate; read-out: PLK1 IC50 (μM) biochemical assay
Known IC50 of a selection of molecules

CCCN1C(=O)COc2ccc(Nc3nc(Nc4ccc(N5CC6CC5CN6C(C)=O)c(C)c4)ncc3C)nc21 (stereo not drawn) [compound 38] : < 0.5 µM

Note to self: IC50 recorded for COC(=O)c1cnc(Nc2cccc(N3CCN(C)CC3)c2)nc1Nc1ccc2c(n1)NCCO2 [compound 11] was ≥ 10 µM

Note to self: IC50 recorded for COc1cnc(Nc2cccc(N3CCN(C)CC3)c2)nc1Nc1ccc2c(n1)NCCO2 [compound 52] was < 0.5 µM

Note to self: IC50 recorded for CC(C)c1ccc(N2CCN(C)CC2)cc1Nc1ncc(F)c(Nc2ccc3c(n2)NCCO3)n1 [compound 27] was < 0.5 µM

Note to self: IC50 recorded for CN1CCN(c2cccc(Nc3ncc(F)c(Nc4ccc5c(n4)N(Cc4ccc(F)cc4)C(=O)CO5)n3)c2)CC1 [compound 132] was 5 to 10 µM

Note to self: IC50 recorded for CN1CCN(c2cc(Nc3ncc(F)c(Nc4ccc5c(n4)NC(=O)CO5)n3)cc(OC(C)(C)C)c2)CC1 [compound 47] was < 0.5 µM

###

# experimental target: PLK1 (Homo sapiens)
# assay text: Cellular PLK1 assay in K562 cells overexpressing CDC25C
# Assay type: cell-based
# Design: endogenous in cells; host or cells: K562 (human chronic myelogenous leukemia) overexpressing CDC25C, nocodazole-arrested
# condition context: nocodazole arrested, cdc25c p-Ser198 readout
property: IC50

Below, 3 compounds whose answers are already recorded.
CCCN1CCOc2ccc(Nc3nc(Nc4ccc(N5CC6CC5CN6S(C)(=O)=O)c(C)c4)ncc3F)nc21 (stereo not shown) : 0.5 to 5 µM
CC(C)Oc1cc(Nc2ncc(F)c(Nc3ccc4c(n3)NC(=O)CO4)n2)cc(N2CCN(C)CC2)c1 : < 0.5 µM
CC(C)Oc1cc(Nc2ncc(F)c(Nc3ccc4c(n3)NCCO4)n2)cc(N2CCN(C)CC2)c1 : < 0.5 µM

Note to self: IC50 recorded for CN1CCN(c2cccc(Nc3ncc(F)c(Nc4ccc5c(c4)NC(=O)CO5)n3)c2)CC1 was 0.5 to 5 µM

###

# experimental target: PLK1 (Homo sapiens)
# assay text: Cellular PLK1 assay in K562 cells overexpressing CDC25C
# Format: cell-based
# Design: endogenous in cells; host or cells: K562 (human chronic myelogenous leukemia) overexpressing CDC25C, nocodazole-arrested
# condition context: nocodazole arrested, cdc25c p-Ser198 readout
Known IC50 of a selection of compounds

CCN1C(=O)COc2ccc(Nc3nc(Nc4ccc(N5CCN(S(C)(=O)=O)CC5)cc4)ncc3C)cc21 : 5 to 10 µM

Note to self: IC50 recorded for CCOC(=O)N1CCN(c2ccc(Nc3ncc(F)c(Nc4ccc5c(n4)NCCO5)n3)cc2)CC1 was ≥ 10 µM

Note to self: IC50 recorded for CC(C)c1cc(Nc2ncc(F)c(Nc3ccc4c(n3)NC(=O)CO4)n2)cc(N2CCN(C)CC2)c1 was ≥ 10 µM

Note to self: IC50 recorded for CCOC(=O)N1CCN(c2cccc(Nc3ncc(F)c(Nc4ccc5c(n4)NCCO5)n3)c2)CC1 was ≥ 10 µM

Note to self: IC50 recorded for Cc1cnc(Nc2cccc(N3CCN(C)CC3)c2)nc1Nc1ccc2c(n1)N(C1CCCC1)C(=O)CO2 was ≥ 10 µM

Note to self: IC50 recorded for CCCN1C(=O)COc2ccc(Nc3nc(Nc4ccc(N5CCN(C)CC5)c(C(F)(F)F)c4)ncc3C)nc21 was ≥ 10 µM

###

Known IC50 of a selection of compounds
# experimental target: PLK1 (Homo sapiens, UniProt P53350)
# Sequence (P53350 whole entry): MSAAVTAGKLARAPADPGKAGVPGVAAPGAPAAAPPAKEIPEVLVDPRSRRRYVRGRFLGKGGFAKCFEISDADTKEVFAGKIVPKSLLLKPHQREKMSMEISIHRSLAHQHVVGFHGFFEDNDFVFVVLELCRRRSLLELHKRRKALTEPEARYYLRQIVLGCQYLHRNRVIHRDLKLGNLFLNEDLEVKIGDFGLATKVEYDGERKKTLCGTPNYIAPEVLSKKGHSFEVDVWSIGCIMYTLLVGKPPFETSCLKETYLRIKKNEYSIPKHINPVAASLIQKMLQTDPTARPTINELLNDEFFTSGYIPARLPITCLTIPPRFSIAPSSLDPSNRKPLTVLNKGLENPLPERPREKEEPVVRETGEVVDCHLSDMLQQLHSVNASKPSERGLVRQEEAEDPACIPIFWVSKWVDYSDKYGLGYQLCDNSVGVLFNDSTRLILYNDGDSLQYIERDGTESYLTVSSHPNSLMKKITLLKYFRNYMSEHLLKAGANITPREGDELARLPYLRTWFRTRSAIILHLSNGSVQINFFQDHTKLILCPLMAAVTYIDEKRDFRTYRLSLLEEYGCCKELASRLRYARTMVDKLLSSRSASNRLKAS
# assay text: In vitro PLK1 ELISA assay (biochemical)
# Design: purchased Cell Signalling 7728
# condition context: ELISA, CHK2-derived peptide substrate; read-out: PLK1 IC50 (μM) biochemical assay

Below, 4 compounds whose answers are already recorded.
Cc1cnc(Nc2cccc(N3CCN(C)CC3)c2)nc1Nc1ccc2c(n1)N(Cc1ccc(F)cc1)C(=O)CO2 : < 0.5 µM
CN1CCN(c2cccc(Nc3ncc(F)c(Nc4ccc5c(n4)N(Cc4ccccc4)C(=O)CO5)n3)c2)CC1 : 0.5 to 5 µM
COc1cc(Nc2ncc(F)c(Nc3ccc4c(n3)NC(=O)CO4)n2)cc(N2CCN(C)CC2)c1 : < 0.5 µM
Cc1cc(Nc2ncc(C)c(Nc3ccc4c(n3)N(C3CCCC3)C(=O)CO4)n2)ccc1N1CCN(C)CC1 : ≥ 10 µM

Note to self: IC50 recorded for CN1CCN(c2cccc(Nc3ncc(F)c(Nc4ccc5c(n4)N(CC4CCCCC4)C(=O)CO5)n3)c2)CC1 was 5 to 10 µM

Note to self: IC50 recorded for Cc1cc(Nc2ncc(C)c(Nc3ccc4c(n3)N(CC3CC3)C(=O)CO4)n2)ccc1N1CCN(C)CC1 was 0.5 to 5 µM

Note to self: IC50 recorded for COc1ccc(CN2C(=O)COc3ccc(Nc4nc(Nc5ccc(N6CCN(C)CC6)c(C)c5)ncc4C)nc32)cc1 was ≥ 10 µM

Note to self: IC50 recorded for Cc1cc(Nc2ncc(C)c(Nc3ccc4c(n3)N(CC3CCCCC3)C(=O)CO4)n2)ccc1N1CCN(C)CC1 was ≥ 10 µM

Note to self: IC50 recorded for CN1CCN(c2cccc(Nc3ncc(F)c(Nc4ccc5c(n4)N(C4CCCC4)C(=O)CO5)n3)c2)CC1 was 0.5 to 5 µM

Note to self: IC50 recorded for CN1CCN(c2cc(Nc3ncc(F)c(Nc4ccc5c(n4)NCCO5)n3)cc(OCC3CCC3)c2)CC1 was < 0.5 µM

Note to self: IC50 recorded for Cc1cc(Nc2ncc(F)c(Nc3ccc4c(n3)N(CC3CCC3)C(=O)CO4)n2)ccc1N1CCN(C)CC1 was ≥ 10 µM

Note to self: IC50 recorded for C#CCN1C(=O)COc2ccc(Nc3nc(Nc4cccc(N5CCN(C)CC5)c4)ncc3C)nc21 was < 0.5 µM

Note to self: IC50 recorded for CCN1C(=O)COc2ccc(Nc3nc(Nc4ccc(N5CCN(C)CC5)c(C)c4)ncc3C)cc21 was 5 to 10 µM

Note to self: IC50 recorded for CCOc1ccc(N2CCN(C)CC2)cc1Nc1ncc(F)c(Nc2ccc3c(n2)NC(=O)CO3)n1 was < 0.5 µM

Note to self: IC50 recorded for CN1CCN(c2ccc(C3CC3)c(Nc3ncc(F)c(Nc4ccc5c(n4)NCCO5)n3)c2)CC1 was < 0.5 µM

###

# experimental target: PLK1 (Homo sapiens, UniProt P53350)
# assay text: Cellular PLK1 assay in K562 cells overexpressing CDC25C
# Format: cell-based
# Design: endogenous in cells; host or cells: K562 (human chronic myelogenous leukemia) overexpressing CDC25C, nocodazole-arrested
# condition context: nocodazole arrested, cdc25c p-Ser198 readout
Known IC50 of a selection of molecules

Below, 5 molecules whose answers are already recorded.
Cc1cnc(Nc2cccc(N3CCN(C)CC3)c2)nc1Nc1ccc2c(n1)NC(=O)CO2 [compound 51] : 0.5 to 5 µM
CCCN1C(=O)COc2ccc(Nc3nc(Nc4ccc(N5CC6CC5CN6S(C)(=O)=O)c(C)c4)ncc3F)nc21 (centres unmarked) [compound 31] : 0.5 to 5 µM
Cc1cnc(Nc2ccc(N3CCN(C)CC3)cc2)nc1Nc1ccc2c(n1)NC(=O)C(C)(C)O2 [compound 88] : ≥ 10 µM
CCN1C(=O)COc2ccc(Nc3nc(Nc4ccc(N5CCN(C)CC5)cc4)ncc3Cl)cc21 [compound 173] : 0.5 to 5 µM
Cc1cc(Nc2ncc(C)c(Nc3ccc4c(c3)N(Cc3ccccn3)C(=O)C(F)(F)O4)n2)ccc1N1CC2CC1CN2C (centres unmarked) [compound 139] : 5 to 10 µM

Record for CN1CCN(c2cccc(Nc3ncc(F)c(Nc4ccc5c(n4)N(CC4CC4)C(=O)CO5)n3)c2)CC1 [compound 108] under target or system PLK1 (Homo sapiens, UniProt P53350): IC50 reported as 0.5 to 5 µM

Record for CCN1CCN(c2ccc(Nc3ncc(C)c(Nc4ccc5c(n4)N(C)C(=O)CO5)n3)cc2)CC1 [compound 91] under target or system PLK1 (Homo sapiens, UniProt P53350): IC50 reported as ≥ 10 µM

Record for Cc1cnc(Nc2ccc(N3CCN(C)CC3)cc2)nc1Nc1ccc2c(c1)N(CCCF)C(=O)CO2 [compound 188] under target or system PLK1 (Homo sapiens, UniProt P53350): IC50 reported as 0.5 to 5 µM

Record for CC(=O)N1CCN(c2cccc(Nc3ncc(F)c(Nc4ccc5c(n4)NCCO5)n3)c2)CC1 [compound 164] under target or system PLK1 (Homo sapiens, UniProt P53350): IC50 reported as ≥ 10 µM

Record for CCCN1C(=O)COc2ccc(Nc3nc(Nc4ccc(N5CC6CC5CN6S(C)(=O)=O)c(C)c4)ncc3C)nc21 (centres unmarked) [compound 32] under target or system PLK1 (Homo sapiens, UniProt P53350): IC50 reported as 0.5 to 5 µM

Record for CC(C)Oc1ccc(N2CCN(C)CC2)cc1Nc1ncc(F)c(Nc2ccc3c(n2)NC(=O)CO3)n1 [compound 30] under target or system PLK1 (Homo sapiens, UniProt P53350): IC50 reported as < 0.5 µM

Record for CN1CCN(c2cccc(Nc3ncc(F)c(Nc4ccc5c(n4)N(C4CCCC4)C(=O)CO5)n3)c2)CC1 [compound 131] under target or system PLK1 (Homo sapiens, UniProt P53350): IC50 reported as ≥ 10 µM

Record for CCCN1CCOc2ccc(Nc3nc(Nc4ccc(N5CC6CC5CN6C(C)=O)c(C)c4)ncc3C)nc21 (centres unmarked) [compound 39] under target or system PLK1 (Homo sapiens, UniProt P53350): IC50 reported as 0.5 to 5 µM

Record for Cc1ccc(Nc2ncc(F)c(Nc3ccc4c(n3)NCCO4)n2)cc1N1CC2CC1CN2C (centres unmarked) [compound 36] under target or system PLK1 (Homo sapiens, UniProt P53350): IC50 reported as 0.5 to 5 µM
